target: T1, Anti-CD28 scFv (VH-linker 1-VL) (biotinylated (site not stated)); test: phage binding ELISA on captured biotinylated anti-CD28 scFv;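 also: crude clonal phage supernatants applied to the wells, bound phage read out with an HRP-conjugated anti-M13 antibody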
T1 construct: biotinylated and captured on neutravidin coated plates in the phage ELISA
T1 sequence (scFv, as listed by the source): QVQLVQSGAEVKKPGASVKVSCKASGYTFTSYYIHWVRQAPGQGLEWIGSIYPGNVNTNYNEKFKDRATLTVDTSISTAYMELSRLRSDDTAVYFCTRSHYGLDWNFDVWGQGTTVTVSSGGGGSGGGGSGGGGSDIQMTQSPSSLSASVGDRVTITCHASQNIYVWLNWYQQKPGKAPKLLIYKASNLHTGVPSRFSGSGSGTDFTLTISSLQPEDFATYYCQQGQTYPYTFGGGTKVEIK
Classification field: 1 (yes) = CD28 scFv signal at or over 2; 0 (no) = CD28 scFv signal under 2.

Kindly determine if CD28 scFv signal recorded for MDWCPKDMWAECFN [Phage-395] is above or exactly 2.
1 (yes)

hey, is CD28 scFv signal for this one >= 2? MDWCPMYLWDECFF [Phage-356]
0 (no)

# bool: CD28 scFv signal of MDWCPWFLWNECFN [Phage-350] >= 2
0 (no)

Answer whether CD28 scFv signal of MDWCPFDLWLECFN [Phage-377] is greater than or equal to 2.
0 (no)

I'd appreciate it if you could say whether MDWCPMNLWHECFA [Phage-351] has CD28 scFv signal at least equal to 2.
0 (no)

Please check the record IDWCPRYMWHECFF [Phage-410] and state if its CD28 scFv signal is at or above 2.
0 (no)

Could you verify whether the entry MHWCPTYMWSECFA [Phage-400] shows CD28 scFv signal of no less than 2?
0 (no)

I'd appreciate it if you could say whether MDWCPRALWDHCFN [Phage-328] has CD28 scFv signal at least equal to 2.
1 (yes)

Does MDWCPRDMWTSCFN [Phage-404] have a reported CD28 scFv signal of at least 2?
0 (no)
